Reference for the values: patent US20170081400A1

Target: T1, human TL1A extracellular domain with N-terminal HIS and FLAG tag (human, UniProt O95150 72-251)
T1 construct: the whole entry is named
T1 sequence: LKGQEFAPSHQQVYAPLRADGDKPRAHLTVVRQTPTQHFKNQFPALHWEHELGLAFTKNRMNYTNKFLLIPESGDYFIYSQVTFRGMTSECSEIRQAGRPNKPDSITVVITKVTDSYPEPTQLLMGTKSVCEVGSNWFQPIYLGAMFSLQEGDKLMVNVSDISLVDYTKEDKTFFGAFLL
Assay: SPR Run 6, purified Ab captured on Protein A, TL1A 5 ug/mL, timepoint 44
measure_name: TL1A Binding Level (Early) (RU)
Please respond with the number in RU and leave the unit unwritten.

Here's what some known entries look like.
binder: 320-491 (antibody, human IgG1, name in Kabat numbering, V domains shown, human IgG1, lambda) VH: QVQLVQSGAEVKKPGASVKVSCKASGYTFTSYDINWVRQAPGQGLEWMGWSNPNSGNTGYAQKFQGRVTMTADRSTSTAYMELSSLRSEDTAVYYCAREVPETAAFEYWGQGTLVTVSS VL: QSVLTQPPSVSGAPGQRVTISCTSSSSDIGAGLGVHWYQQLPGTAPKLLIEGYYNRPSGVPDRFSGSKSGTSASLTITGLLPEDEGDYYCQSYDGTLSALFGGGTKLTVLG
TL1A Binding Level (Early), RU: 85

binder: 320-455 (antibody, human IgG1, name in Kabat numbering, V domains shown, human IgG1, lambda) VH: QVQLVQSGAEVKKPGASVKVSCKASGYTFTSYDSNWVRQAPGQGLEWMGWLNPNSGNTGYAQKFQGRVTMTADRSTSTAYMELSSLRSEDTAVYYCAREVPETAAFEYWGQGTLVTVSS VL: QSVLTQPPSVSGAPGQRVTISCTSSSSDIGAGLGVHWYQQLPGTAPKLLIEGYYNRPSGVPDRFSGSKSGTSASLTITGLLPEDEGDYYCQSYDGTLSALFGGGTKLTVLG
TL1A Binding Level (Early), RU: 27

binder: 320-438 (antibody, human IgG1, name in Kabat numbering, V domains shown, human IgG1, lambda) VH: QVQLVQSGAEVKKPGASVKVSCKASGYTFTSADINWVRQAPGQGLEWMGWLNPNSGNTGYAQKFQGRVTMTADRSTSTAYMELSSLRSEDTAVYYCAREVPETAAFEYWGQGTLVTVSS VL: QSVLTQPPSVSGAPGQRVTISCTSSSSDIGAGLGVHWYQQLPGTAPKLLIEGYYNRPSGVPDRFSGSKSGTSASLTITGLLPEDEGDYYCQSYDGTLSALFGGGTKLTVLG
TL1A Binding Level (Early), RU: 126

binder: 320-476 (antibody, human IgG1, name in Kabat numbering, V domains shown, human IgG1, lambda) VH: QVQLVQSGAEVKKPGASVKVSCKASGKTFTSYDINWVRQAPGQGLEWMGWLNPNSGNTGYAQKFQGRVTMTADRSTSTAYMELSSLRSEDTAVYYCAREVPETAAFEYWGQGTLVTVSS VL: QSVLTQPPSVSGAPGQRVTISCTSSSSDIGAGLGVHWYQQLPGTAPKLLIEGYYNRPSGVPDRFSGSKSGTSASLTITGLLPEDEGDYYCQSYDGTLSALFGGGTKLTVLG
TL1A Binding Level (Early), RU: 128

// next item, TL1A Binding Level (Early) requested
Exercise: I have this binder here, 320-451 (antibody, human IgG1, name in Kabat numbering, V domains shown, human IgG1, lambda) VH: QVQLVQSGAEVKKPGASVKVSCKASGYTFTSYLINWVRQAPGQGLEWMGWLNPNSGNTGYAQKFQGRVTMTADRSTSTAYMELSSLRSEDTAVYYCAREVPETAAFEYWGQGTLVTVSS VL: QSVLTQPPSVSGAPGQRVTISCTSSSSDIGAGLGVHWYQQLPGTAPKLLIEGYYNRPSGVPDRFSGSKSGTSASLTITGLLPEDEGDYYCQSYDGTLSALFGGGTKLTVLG , and I need its recorded TL1A Binding Level (Early).
Solution: 19
